Value source: PubChem BioAssay (NCI)

The following molecules are listed with their measured log10 of TGI values.
Test system: UACC-62 melanoma
Experiment: NCI tumour cell line growth inhibition, 48 h
endpoint: log10 of TGI (log10 of the value in µM)

molecule	target.desc	log10 of TGI
CC(=O)N1N=C(c2c(O)ccc3ccccc23)CC1c1ccc(Cl)cc1 (centres undefined)	UACC-62 melanoma	1.44
CCOC(=O)C#Cc1c(CC(=O)OCC)nnn1[C@H]1O[C@@H](CO)[C@@H]2OC(C)(C)O[C@@H]21	UACC-62 melanoma	0.62
CC(C)(C)[Si](C)(C)OCC#C[C@@]1(O)CCCCC1CC(Sc1ccccc1)Sc1ccccc1 (some centres undefined)	UACC-62 melanoma	1.43
COC(=O)[C@@]1(O)C[C@H]2O[C@]1(C)n1c3ccccc3c3c4c(c5c6ccccc6n2c5c31)C(=O)NC4	UACC-62 melanoma	0.19
COc1ccc2nc(C)cc(Nc3ccccc3O)c2c1	UACC-62 melanoma	1.60
O=C(N/N=C\c1ccc(N(CCCl)CCCl)cc1Cl)c1cccnc1	UACC-62 melanoma	0.59
C/C(=N/NC(=S)NCCc1ccccn1)c1cnccn1	UACC-62 melanoma	1.81
Cc1cc(-c2nc3cc(O)ccc3s2)ccc1N	UACC-62 melanoma	1.65
